Biological target: FES (Homo sapiens, UniProt P07332)
Construct: purchased Carna Biosciences
Sequence (P07332 whole entry): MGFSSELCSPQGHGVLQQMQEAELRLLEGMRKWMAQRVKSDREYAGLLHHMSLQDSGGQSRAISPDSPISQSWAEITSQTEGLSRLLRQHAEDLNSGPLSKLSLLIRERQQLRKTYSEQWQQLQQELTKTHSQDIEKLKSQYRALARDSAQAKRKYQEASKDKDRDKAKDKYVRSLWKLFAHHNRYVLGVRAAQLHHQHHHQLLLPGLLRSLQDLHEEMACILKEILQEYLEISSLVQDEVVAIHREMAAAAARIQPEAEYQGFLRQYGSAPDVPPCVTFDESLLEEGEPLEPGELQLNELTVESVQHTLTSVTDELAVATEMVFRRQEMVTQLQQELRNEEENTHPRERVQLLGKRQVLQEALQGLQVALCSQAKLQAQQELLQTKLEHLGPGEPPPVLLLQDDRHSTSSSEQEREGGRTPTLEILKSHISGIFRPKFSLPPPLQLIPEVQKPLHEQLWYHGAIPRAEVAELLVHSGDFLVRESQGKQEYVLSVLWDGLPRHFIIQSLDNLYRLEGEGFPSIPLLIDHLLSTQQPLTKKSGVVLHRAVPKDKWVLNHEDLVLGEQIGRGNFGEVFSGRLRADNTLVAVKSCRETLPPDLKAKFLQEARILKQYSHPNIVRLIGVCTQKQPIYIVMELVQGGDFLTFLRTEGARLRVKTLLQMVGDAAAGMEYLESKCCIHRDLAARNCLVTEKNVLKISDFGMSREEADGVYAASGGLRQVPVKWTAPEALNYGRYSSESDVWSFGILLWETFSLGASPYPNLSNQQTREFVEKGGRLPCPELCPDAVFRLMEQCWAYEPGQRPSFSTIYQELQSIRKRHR
Assay: Kinase panel profiling at 1 µmol/L (mobility shift assay, Carna)
Type: biochemical
Conditions: 1 µmol/L of BTK inhibitor
Assign Percentage inhibition of kinase enzyme activity to each entry below.
Give bare numbers, in %.

Use these answered entries as a reference point.
C=CC(=O)N1CCC([C@@H]2CCNc3c(C(N)=O)c(-c4ccc(Oc5ccccc5)cc4)nn32)CC1 [zanubrutinib]    4.53
CC#CC(=O)N1CCC[C@H]1c1nc(-c2ccc(C(=O)Nc3ccccn3)cc2)c2c(N)nccn12 [acalabrutinib]    -6.35
C=CC(=O)N1CCC[C@@H](n2nc(-c3ccc(Oc4ccccc4)cc3)c3c(N)ncnc32)C1 [ibrutinib]    0.68
O=C(c1ccc(Oc2ccccc2)cc1Cl)c1c[nH]c2ncnc(N[C@@H]3CC[C@@H](CO)OC3)c12 [nemtabrutinib]    93.26

Shift focus to the following entry.
For COc1ccc(F)cc1C(=O)NCc1ccc(-c2nn([C@@H](C)C(F)(F)F)c(N)c2C(N)=O)cc1 [pirtobrutinib] , what is its reported Percentage inhibition of kinase enzyme activity?
11.87

###

Test system: Hs 766T
Assay: Cell viability assay (ATPlite)
Format: cell-based
Conditions: Homo sapiens, Hs766T; Hs 766T cell line, 72 hours incubation
measure-name: IC50 (nM)
Numbers only, in nM.

For O=C(c1ccc(Oc2ccccc2)cc1Cl)c1c[nH]c2ncnc(N[C@@H]3CC[C@@H](CO)OC3)c12 , what is its reported IC50?
1820

###

Target: PKD2 (Homo sapiens, UniProt Q9BZL6)
Construct: purchased Carna Biosciences
Sequence (Q9BZL6 whole entry): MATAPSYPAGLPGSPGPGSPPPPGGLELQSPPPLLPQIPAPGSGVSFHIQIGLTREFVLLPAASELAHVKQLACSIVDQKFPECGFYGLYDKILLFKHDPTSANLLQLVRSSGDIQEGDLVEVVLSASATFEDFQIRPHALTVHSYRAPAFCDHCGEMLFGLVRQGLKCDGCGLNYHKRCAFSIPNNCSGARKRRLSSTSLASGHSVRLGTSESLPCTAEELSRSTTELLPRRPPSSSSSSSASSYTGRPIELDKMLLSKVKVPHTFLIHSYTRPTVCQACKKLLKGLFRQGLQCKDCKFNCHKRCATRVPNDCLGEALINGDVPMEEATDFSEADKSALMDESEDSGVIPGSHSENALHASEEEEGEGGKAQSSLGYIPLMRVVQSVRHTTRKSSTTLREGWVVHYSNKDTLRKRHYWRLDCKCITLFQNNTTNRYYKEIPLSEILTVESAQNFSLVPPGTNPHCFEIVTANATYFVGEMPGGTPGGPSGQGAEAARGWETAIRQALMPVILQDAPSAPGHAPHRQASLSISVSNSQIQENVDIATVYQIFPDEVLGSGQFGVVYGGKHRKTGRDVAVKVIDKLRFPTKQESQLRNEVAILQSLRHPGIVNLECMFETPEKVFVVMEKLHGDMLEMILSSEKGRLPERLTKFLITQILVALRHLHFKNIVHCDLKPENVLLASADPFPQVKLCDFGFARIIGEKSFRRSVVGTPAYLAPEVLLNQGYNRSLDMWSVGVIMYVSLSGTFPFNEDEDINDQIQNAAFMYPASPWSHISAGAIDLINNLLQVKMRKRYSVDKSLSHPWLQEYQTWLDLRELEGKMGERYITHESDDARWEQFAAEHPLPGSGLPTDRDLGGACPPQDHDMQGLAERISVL
Assay: Kinase panel profiling at 1 µmol/L (mobility shift assay, Carna)
Assay type: biochemical
Settings: 1 µmol/L of BTK inhibitor
Assign Percentage inhibition of kinase enzyme activity to each entry below.

Use these answered entries as a reference point.
CC#CC(=O)N1CCC[C@H]1c1nc(-c2ccc(C(=O)Nc3ccccn3)cc2)c2c(N)nccn12    -9.88%
C=CC(=O)N1CCC[C@@H](n2nc(-c3ccc(Oc4ccccc4)cc3)c3c(N)ncnc32)C1    -3.20%
O=C(c1ccc(Oc2ccccc2)cc1Cl)c1c[nH]c2ncnc(N[C@@H]3CC[C@@H](CO)OC3)c12    7.65%

Shift focus to the following entry.
For COc1ccc(F)cc1C(=O)NCc1ccc(-c2nn([C@@H](C)C(F)(F)F)c(N)c2C(N)=O)cc1 , what is its reported Percentage inhibition of kinase enzyme activity?
-6.50%

###

Biological target: PAK2 (Homo sapiens, UniProt Q13177)
Construct: purchased Carna Biosciences
Sequence (Q13177 whole entry): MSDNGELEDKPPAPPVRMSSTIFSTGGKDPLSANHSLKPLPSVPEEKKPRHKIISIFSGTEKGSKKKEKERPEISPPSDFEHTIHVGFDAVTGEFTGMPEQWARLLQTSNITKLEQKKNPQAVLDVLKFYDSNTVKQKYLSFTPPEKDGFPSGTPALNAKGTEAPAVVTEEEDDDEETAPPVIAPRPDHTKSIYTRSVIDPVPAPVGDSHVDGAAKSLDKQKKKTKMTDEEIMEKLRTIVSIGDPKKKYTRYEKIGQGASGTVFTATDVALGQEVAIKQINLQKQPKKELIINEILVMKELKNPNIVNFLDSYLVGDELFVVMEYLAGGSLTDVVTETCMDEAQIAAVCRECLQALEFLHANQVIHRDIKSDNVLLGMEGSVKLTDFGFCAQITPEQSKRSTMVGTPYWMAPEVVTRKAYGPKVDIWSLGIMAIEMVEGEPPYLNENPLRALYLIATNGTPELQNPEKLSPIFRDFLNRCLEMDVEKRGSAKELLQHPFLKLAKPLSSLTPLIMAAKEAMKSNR
Assay: Kinase panel profiling at 1 µmol/L (mobility shift assay, Carna)
Type: biochemical
Conditions: 1 µmol/L of BTK inhibitor
measure-name: Percentage inhibition of kinase enzyme activity (%)
Give bare numbers, in %.

CC#CC(=O)N1CCC[C@H]1c1nc(-c2ccc(C(=O)Nc3ccccn3)cc2)c2c(N)nccn12    -5.20
O=C(c1ccc(Oc2ccccc2)cc1Cl)c1c[nH]c2ncnc(N[C@@H]3CC[C@@H](CO)OC3)c12    93.68
C=CC(=O)N1CCC[C@@H](n2nc(-c3ccc(Oc4ccccc4)cc3)c3c(N)ncnc32)C1    -5.81
C=CC(=O)N1CCC([C@@H]2CCNc3c(C(N)=O)c(-c4ccc(Oc5ccccc5)cc4)nn32)CC1    9.82

Shift focus to the following entry.
Request - read-out Percentage inhibition of kinase enzyme activity | tested on PAK2 (Homo sapiens, UniProt Q13177) | compound COc1ccc(F)cc1C(=O)NCc1ccc(-c2nn([C@@H](C)C(F)(F)F)c(N)c2C(N)=O)cc1
8.29
